Attribution: ChEMBL document CHEMBL1153112

Test: Thermodynamic solubility in phosphate-citrate buffer at pH 7.7
Assay type: physicochemical

- SMILES STRUCTURE: "O=C(NO)c1cnc(N2CCN(S(=O)(=O)c3ccc4ccccc4c3)CC2)nc1"
  solubility thermodynamic: "< 100 µg/mL"

* * *

Assay: Clearance in Sprague-Dawley rat at 2.5 mg/kg, iv administered in water at pH 4.4
Type: ADME, organism-based
Parameters: dose 2.5 mg/kg, route intravenous
Details: in vivo
Documented clearance across a set of molecules
ATTRIBUTE MEASURED: clearance (mL/min/kg)

- MOLECULE: "O=C(NO)c1cnc(N2CCN(S(=O)(=O)c3ccc4ccccc4c3)CC2)nc1"
  RECORDED RESULT: 13.3
- MOLECULE: "O=C(NO)c1cnc(N2CCN(C(/C=C/c3ccccc3)CO)CC2)nc1 (stereo in doubt; 3a)"
  RECORDED RESULT: 98.3
- MOLECULE: "O=C(NO)c1cnc(N2CCN(C(/C=C/c3ccc(F)cc3)CO)CC2)nc1 (single isomer, unassigned; (-))"
  RECORDED RESULT: 76.7

* * *

# maps each entry to its AUC(0-inf)
Assay: AUC (0 to infinity) in Sprague-Dawley rat at 2.5 mg/kg, iv administered in water at pH 4.4
Assay type: ADME, organism-based
Parameters: time infinity, dose 2.5 mg/kg, route intravenous
Settings: plasma
ATTRIBUTE MEASURED: AUC(0-inf) (ng·h/mL)

- COMPOUND: "O=C(NO)c1cnc(N2CCN(C(/C=C/c3ccc(F)cc3)CO)CC2)nc1 (single isomer, unassigned; (-))"
  UNIT NAME: "ng·h/mL"
  RECORDED RESULT: 521
- COMPOUND: "O=C(NO)c1cnc(N2CCN(C(/C=C/c3ccccc3)CO)CC2)nc1 (stereo in doubt; 3a)"
  UNIT NAME: "ng·h/mL"
  RECORDED RESULT: 413
- COMPOUND: "O=C(NO)c1cnc(N2CCN(S(=O)(=O)c3ccc4ccccc4c3)CC2)nc1"
  UNIT NAME: "ng·h/mL"
  RECORDED RESULT: 2650

* * *

Target: Histone deacetylase
Test: Inhibition of HDAC in human HeLa cells extractt
Type: cell-free
ATTRIBUTE MEASURED: IC50 (nM)

- MOLECULE: "O=C(NO)c1cnc(N2CCOC(CNC(/C=C/c3ccccc3)CO)C2)nc1 (stereo unspecified)"
  MEASURED TARGET: "Histone deacetylase"
  ATTRIBUTE MEASURED: "IC50"
  UNIT NAME: "nM"
  RECORDED RESULT: 8
- MOLECULE: "O=C(NO)c1cnc(N2CCN(C(/C=C/c3ccccc3)CO)CC2)nc1 (single isomer, unassigned; (-))"
  MEASURED TARGET: "Histone deacetylase"
  ATTRIBUTE MEASURED: "IC50"
  UNIT NAME: "nM"
  RECORDED RESULT: 1.8
- MOLECULE: "COCC(/C=C/c1ccccc1)N1CCN(c2ncc(C(=O)NO)cn2)CC1 (stereo unspecified)"
  MEASURED TARGET: "Histone deacetylase"
  ATTRIBUTE MEASURED: "IC50"
  UNIT NAME: "nM"
  RECORDED RESULT: 1.5
- MOLECULE: "O=C(NO)c1cnc(N2CCN(C(/C=C/c3ccccc3)C(=O)N3CCOCC3)CC2)nc1 (stereo unspecified)"
  MEASURED TARGET: "Histone deacetylase"
  ATTRIBUTE MEASURED: "IC50"
  UNIT NAME: "nM"
  RECORDED RESULT: 7
- MOLECULE: "CC(/C=C/c1ccccc1)N1CCN(c2ncc(C(=O)NO)cn2)CC1 (stereo unspecified)"
  MEASURED TARGET: "Histone deacetylase"
  ATTRIBUTE MEASURED: "IC50"
  UNIT NAME: "nM"
  RECORDED RESULT: 1.7
- MOLECULE: "CN1CCN(CC(/C=C/c2ccccc2)N2CCN(c3ncc(C(=O)NO)cn3)CC2)CC1 (stereo unspecified)"
  MEASURED TARGET: "Histone deacetylase"
  ATTRIBUTE MEASURED: "IC50"
  UNIT NAME: "nM"
  RECORDED RESULT: 6.9
- MOLECULE: "O=C(NO)c1cnc(N2CCN(C(/C=C/c3ccc(Cl)cc3)CO)CC2)nc1 (stereo unspecified)"
  MEASURED TARGET: "Histone deacetylase"
  ATTRIBUTE MEASURED: "IC50"
  UNIT NAME: "nM"
  RECORDED RESULT: 1.2
- MOLECULE: "O=C(NO)c1cnc(N2CCN(C(/C=C/c3ccc(-c4ccccc4)cc3)CO)CC2)nc1 (stereo unspecified)"
  MEASURED TARGET: "Histone deacetylase"
  ATTRIBUTE MEASURED: "IC50"
  UNIT NAME: "nM"
  RECORDED RESULT: 0.9
- MOLECULE: "O=C(NO)c1cnc(N2CCC(CNC(/C=C/c3ccccc3)CO)CC2)nc1 (stereo unspecified)"
  MEASURED TARGET: "Histone deacetylase"
  ATTRIBUTE MEASURED: "IC50"
  UNIT NAME: "nM"
  RECORDED RESULT: 1.5
- MOLECULE: "O=C(NO)c1cnc(N2CCN(C(/C=C/c3ccccc3F)CO)CC2)nc1 (stereo unspecified)"
  MEASURED TARGET: "Histone deacetylase"
  ATTRIBUTE MEASURED: "IC50"
  UNIT NAME: "nM"
  RECORDED RESULT: 2
- MOLECULE: "O=C(NO)c1cnc(N2CCN(C(/C=C/c3ccccc3)CO)CC2)nc1 (stereo in doubt; 3a)"
  MEASURED TARGET: "Histone deacetylase"
  ATTRIBUTE MEASURED: "IC50"
  UNIT NAME: "nM"
  RECORDED RESULT: 2
- MOLECULE: "O=C(NO)c1cnc(N2CCN(C(/C=C/c3ccccc3)CN3CCOCC3)CC2)nc1 (stereo unspecified)"
  MEASURED TARGET: "Histone deacetylase"
  ATTRIBUTE MEASURED: "IC50"
  UNIT NAME: "nM"
  RECORDED RESULT: 11
- MOLECULE: "NC(/C=C/c1ccccc1)CN1CCN(c2ncc(C(=O)NO)cn2)CC1 (stereo unspecified)"
  MEASURED TARGET: "Histone deacetylase"
  ATTRIBUTE MEASURED: "IC50"
  UNIT NAME: "nM"
  RECORDED RESULT: 3.8
- MOLECULE: "COc1ccc(/C=C/C(CO)N2CCN(c3ncc(C(=O)NO)cn3)CC2)cc1 (stereo unspecified)"
  MEASURED TARGET: "Histone deacetylase"
  ATTRIBUTE MEASURED: "IC50"
  UNIT NAME: "nM"
  RECORDED RESULT: 0.95
- MOLECULE: "O=C(NO)c1cnc(N2CCC(NC(/C=C/c3ccccc3)CO)CC2)nc1 (stereo unspecified)"
  MEASURED TARGET: "Histone deacetylase"
  ATTRIBUTE MEASURED: "IC50"
  UNIT NAME: "nM"
  RECORDED RESULT: 7
- MOLECULE: "CNC(=O)C(/C=C/c1ccccc1)N1CCN(c2ncc(C(=O)NO)cn2)CC1 (stereo unspecified)"
  MEASURED TARGET: "Histone deacetylase"
  ATTRIBUTE MEASURED: "IC50"
  UNIT NAME: "nM"
  RECORDED RESULT: 3.3
- MOLECULE: "O=C(NO)c1cnc(N2CCN(C(/C=C/c3ccc(C(F)(F)F)cc3)CO)CC2)nc1 (stereo unspecified)"
  MEASURED TARGET: "Histone deacetylase"
  ATTRIBUTE MEASURED: "IC50"
  UNIT NAME: "nM"
  RECORDED RESULT: 2.1
- MOLECULE: "O=C(NO)c1cnc(N2CCN(Cc3ccc4ccccc4c3)CC2)nc1"
  MEASURED TARGET: "Histone deacetylase"
  ATTRIBUTE MEASURED: "IC50"
  UNIT NAME: "nM"
  RECORDED RESULT: 1.5
- MOLECULE: "O=C(NO)c1cnc(N2CCN(C(/C=C/c3cccc(F)c3)CO)CC2)nc1 (stereo unspecified)"
  MEASURED TARGET: "Histone deacetylase"
  ATTRIBUTE MEASURED: "IC50"
  UNIT NAME: "nM"
  RECORDED RESULT: 1.2
- MOLECULE: "Cc1ccc(/C=C/C(CO)N2CCN(c3ncc(C(=O)NO)cn3)CC2)cc1 (stereo unspecified)"
  MEASURED TARGET: "Histone deacetylase"
  ATTRIBUTE MEASURED: "IC50"
  UNIT NAME: "nM"
  RECORDED RESULT: 1
- MOLECULE: "O=C(NO)c1cnc(N2CCN(C(/C=C/c3ccccc3)CO)CC2)nc1 (stereo in doubt; 3a1)"
  MEASURED TARGET: "Histone deacetylase"
  ATTRIBUTE MEASURED: "IC50"
  UNIT NAME: "nM"
  RECORDED RESULT: 1
